Item-by-item account of Ki
target entity: HCV NS3/4A protease (Hepatitis C virus genotype 1a (isolate H77) (HCV), UniProt P27958)
Sequence (P27958 1027-1657): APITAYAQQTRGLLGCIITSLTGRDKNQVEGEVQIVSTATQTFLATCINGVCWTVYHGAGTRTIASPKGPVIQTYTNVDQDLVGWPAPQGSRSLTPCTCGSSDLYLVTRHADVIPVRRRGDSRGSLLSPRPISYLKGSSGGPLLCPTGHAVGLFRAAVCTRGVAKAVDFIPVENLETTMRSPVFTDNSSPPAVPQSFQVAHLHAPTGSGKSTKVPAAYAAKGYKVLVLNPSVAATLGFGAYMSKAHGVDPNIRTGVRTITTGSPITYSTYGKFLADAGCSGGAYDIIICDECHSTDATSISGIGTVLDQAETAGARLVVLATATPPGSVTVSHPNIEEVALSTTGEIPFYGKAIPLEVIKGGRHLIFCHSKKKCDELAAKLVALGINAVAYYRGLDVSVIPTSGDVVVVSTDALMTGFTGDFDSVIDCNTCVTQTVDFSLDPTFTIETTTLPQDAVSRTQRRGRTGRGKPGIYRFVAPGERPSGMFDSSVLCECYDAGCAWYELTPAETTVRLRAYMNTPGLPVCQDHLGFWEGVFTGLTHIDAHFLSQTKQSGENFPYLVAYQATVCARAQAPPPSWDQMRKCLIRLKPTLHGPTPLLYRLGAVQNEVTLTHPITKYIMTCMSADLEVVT
assay overview: Inhibition assay (enzymatic assay) of full-length NS3 protease with NS4A cofactor
Format: biochemical
assay setup: full-length NS3 1 nM, 25 μM NS4A cofactor, 0.5 μM depsipeptide substrate, 30° C., competitive inhibition model
State the answer as a number, implicitly in µM.

Guide cases for Ki, answers given:
[[record]]
smiles_structure = "CCOc1cc(O[C@@H]2C[C@H]3C(=O)N[C@]4(C(=O)NS(=O)(=O)C5CC5)C[C@H]4/C=C\\CCCCN(C)C(=O)[C@@H]3C2)c2cccc(Cl)c2n1"
measured_metric = "Ki"
experimental_result = 0.0005

[[record]]
smiles_structure = "CCOc1cc(O[C@@H]2C[C@H]3C(=O)N[C@]4(C(=O)NS(=O)(=O)C5CC5)C[C@H]4/C=C\\CCCCN(C)C(=O)[C@@H]3C2)c2ccc(OC)cc2n1"
measured_metric = "Ki"
experimental_result = 0.0001

[[record]]
smiles_structure = "CCOc1cc(O[C@@H]2C[C@H]3C(=O)N[C@]4(C(=O)O)C[C@H]4/C=C\\CCCCN(C)C(=O)[C@@H]3C2)c2cccc(C)c2n1"
measured_metric = "Ki"
experimental_result = 0.017

[[record]]
smiles_structure = "CCOc1cc(O[C@@H]2C[C@H]3C(=O)N[C@]4(C(=O)NS(=O)(=O)C5CC5)C[C@H]4/C=C\\CCCCN(C)C(=O)[C@@H]3C2)c2ccc3c(c2n1)OCO3"
measured_metric = "Ki"
experimental_result = 0.0002


So what does the record say about Ki for CCOc1cc(O[C@@H]2C[C@H]3C(=O)N[C@]4(C(=O)NS(=O)(=O)C5CC5)C[C@H]4/C=C\CCCCN(C)C(=O)[C@@H]3C2)c2ccc(OC)c(Br)c2n1 ?
0.0001

So what does the record say about Ki for CCOc1cc(O[C@@H]2C[C@H]3C(=O)N[C@]4(C(=O)NS(=O)(=O)C5CC5)C[C@H]4/C=C\CCCCN(C)C(=O)[C@@H]3C2)c2ccc3c(c2n1)CCO3 ?
0.0008

So what does the record say about Ki for CCOc1cc(O[C@@H]2C[C@H]3C(=O)N[C@]4(C(=O)NS(=O)(=O)C5CC5)C[C@H]4/C=C\CCCCN(C)C(=O)[C@@H]3C2)c2cccc(C)c2n1 ?
0.0001

So what does the record say about Ki for CCOc1cc(O[C@@H]2C[C@H]3C(=O)N[C@]4(C(=O)O)C[C@H]4/C=C\CCCCN(C)C(=O)[C@@H]3C2)c2ccc3c(c2n1)OCO3 ?
0.058

So what does the record say about Ki for CCOc1cc(O[C@@H]2C[C@H]3C(=O)N[C@]4(C(=O)O)C[C@H]4/C=C\CCCCN(C)C(=O)[C@@H]3C2)c2cccc(Cl)c2n1 ?
0.0077

So what does the record say about Ki for CCOc1cc(O[C@@H]2C[C@H]3C(=O)N[C@]4(C(=O)O)C[C@H]4/C=C\CCCCN(C)C(=O)[C@@H]3C2)c2ccc(OC)cc2n1 ?
0.046
